- Tested Target: Proton Pump (H^+ /K^+ ATPase) (Oryctolagus cuniculus)
- Construct: The microsomes thus obtained were used as an enzyme source of the in vitro enzyme reaction study of proton pump; from tissue; host or cells: rabbit stomach, mucosal scrapings, microsomes (180,000 g pellet)
- Sequence (P27112 whole entry): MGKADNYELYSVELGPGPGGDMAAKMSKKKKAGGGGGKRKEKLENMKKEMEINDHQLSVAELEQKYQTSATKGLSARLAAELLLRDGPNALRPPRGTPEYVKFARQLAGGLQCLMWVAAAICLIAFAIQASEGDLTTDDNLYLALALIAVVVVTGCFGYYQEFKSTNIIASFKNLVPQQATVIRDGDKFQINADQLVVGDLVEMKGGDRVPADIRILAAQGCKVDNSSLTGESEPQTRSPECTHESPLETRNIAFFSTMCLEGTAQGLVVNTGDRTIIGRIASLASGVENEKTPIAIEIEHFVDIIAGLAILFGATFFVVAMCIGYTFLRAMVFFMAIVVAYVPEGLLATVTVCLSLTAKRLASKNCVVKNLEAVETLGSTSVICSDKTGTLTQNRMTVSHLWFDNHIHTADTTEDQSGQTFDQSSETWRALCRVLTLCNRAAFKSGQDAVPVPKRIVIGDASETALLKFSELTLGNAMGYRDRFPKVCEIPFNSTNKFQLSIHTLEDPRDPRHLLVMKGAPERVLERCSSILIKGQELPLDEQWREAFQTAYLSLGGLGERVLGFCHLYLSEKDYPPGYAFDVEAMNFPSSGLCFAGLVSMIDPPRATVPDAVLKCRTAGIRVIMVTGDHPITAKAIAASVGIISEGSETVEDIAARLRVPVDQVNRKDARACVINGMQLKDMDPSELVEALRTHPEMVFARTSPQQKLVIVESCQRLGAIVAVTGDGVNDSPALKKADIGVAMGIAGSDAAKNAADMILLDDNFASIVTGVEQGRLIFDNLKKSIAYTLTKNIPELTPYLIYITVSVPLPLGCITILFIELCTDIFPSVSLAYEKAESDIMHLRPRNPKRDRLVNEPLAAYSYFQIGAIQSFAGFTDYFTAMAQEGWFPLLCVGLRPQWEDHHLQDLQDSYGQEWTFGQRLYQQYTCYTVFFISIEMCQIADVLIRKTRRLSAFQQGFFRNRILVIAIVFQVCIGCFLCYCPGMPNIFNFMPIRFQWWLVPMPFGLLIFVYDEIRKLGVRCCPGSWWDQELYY
- Sequence (P18597 whole entry partner): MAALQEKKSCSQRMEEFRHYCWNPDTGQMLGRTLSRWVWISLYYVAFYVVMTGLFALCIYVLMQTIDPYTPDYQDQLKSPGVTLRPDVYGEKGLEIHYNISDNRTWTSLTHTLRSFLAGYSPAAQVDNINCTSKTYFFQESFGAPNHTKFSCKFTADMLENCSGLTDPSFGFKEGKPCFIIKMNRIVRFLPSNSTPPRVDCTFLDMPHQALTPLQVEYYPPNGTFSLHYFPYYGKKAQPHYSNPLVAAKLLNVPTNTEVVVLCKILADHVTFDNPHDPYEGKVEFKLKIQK
- Protocol Details: Inhibition of Proton Pump (H+/K+ ATPase) Activity, in vitro enzyme reaction (Experiment 1)
- Type: biochemical, New Zealand white rabbit
- Experimental Setup: K+-stimulated H+/K+ ATPase activity, rabbit gastric microsomes, pH 7.2, 37° C., 15 min prereaction, 30 min reaction; read-out: IC50 of test compound, inhibition (50%) of the proton pump activity
pIC50: −log10 of the molar value.

# Compound, pIC50
records = [
    ("COc1cccc2c(N3CCc4ccccc4C3C)nc(Nc3ccc(F)cc3)nc12.Cl (stereo not drawn) [Example 33, Hydrochloride]", 5.64),
    ("Fc1ccc(Nc2nc(N3CCc4ccccc4C3)c3ccccc3n2)cc1", 5.70),
    ("COc1cccc2c(N3CCc4ccccc4C3)nc(Nc3ccc(F)cc3)nc12.Cl [Example 30, Hydrochloride]", 5.66),
]
